- system.under.test: NPC1-like intracellular cholesterol transporter 1 (Homo sapiens, UniProt Q9UHC9)
- Sequence (Q9UHC9 whole entry): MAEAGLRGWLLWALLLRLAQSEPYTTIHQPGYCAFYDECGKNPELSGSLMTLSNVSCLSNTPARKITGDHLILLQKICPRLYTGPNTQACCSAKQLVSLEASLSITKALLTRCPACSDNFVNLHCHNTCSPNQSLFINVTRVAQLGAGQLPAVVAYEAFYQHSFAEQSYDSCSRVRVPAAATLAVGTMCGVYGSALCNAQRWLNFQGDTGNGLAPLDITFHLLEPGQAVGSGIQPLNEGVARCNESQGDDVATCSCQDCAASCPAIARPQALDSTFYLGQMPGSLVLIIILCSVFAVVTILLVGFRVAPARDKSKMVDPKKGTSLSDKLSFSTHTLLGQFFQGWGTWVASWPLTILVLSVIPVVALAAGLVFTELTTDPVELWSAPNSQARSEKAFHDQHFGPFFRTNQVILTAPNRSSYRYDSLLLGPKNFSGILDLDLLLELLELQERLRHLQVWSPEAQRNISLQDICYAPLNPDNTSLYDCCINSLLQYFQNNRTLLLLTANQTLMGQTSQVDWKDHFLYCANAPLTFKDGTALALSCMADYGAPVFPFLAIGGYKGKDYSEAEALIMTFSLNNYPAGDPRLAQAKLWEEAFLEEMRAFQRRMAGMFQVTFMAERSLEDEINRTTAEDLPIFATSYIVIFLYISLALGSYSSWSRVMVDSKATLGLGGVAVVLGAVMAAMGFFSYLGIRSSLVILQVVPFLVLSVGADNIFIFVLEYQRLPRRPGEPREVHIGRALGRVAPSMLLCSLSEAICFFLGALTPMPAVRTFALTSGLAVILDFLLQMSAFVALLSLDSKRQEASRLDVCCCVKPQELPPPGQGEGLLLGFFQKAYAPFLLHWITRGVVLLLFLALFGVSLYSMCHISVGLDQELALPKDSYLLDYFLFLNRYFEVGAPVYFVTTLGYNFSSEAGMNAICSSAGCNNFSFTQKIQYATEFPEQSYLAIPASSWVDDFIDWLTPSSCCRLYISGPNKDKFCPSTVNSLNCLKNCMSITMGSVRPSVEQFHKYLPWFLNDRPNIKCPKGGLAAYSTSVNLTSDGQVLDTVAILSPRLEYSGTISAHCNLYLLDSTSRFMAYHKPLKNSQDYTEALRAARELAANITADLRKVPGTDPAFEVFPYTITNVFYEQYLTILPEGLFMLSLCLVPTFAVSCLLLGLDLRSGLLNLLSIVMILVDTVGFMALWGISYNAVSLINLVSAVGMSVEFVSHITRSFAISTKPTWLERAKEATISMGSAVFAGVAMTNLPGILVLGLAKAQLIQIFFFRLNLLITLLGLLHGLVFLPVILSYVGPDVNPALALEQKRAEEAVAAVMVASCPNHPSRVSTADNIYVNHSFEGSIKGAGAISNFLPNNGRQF
- assay.remarks: Displacement of [35S](2S,3S,4S,5R,6S)-6-(4-((2S,3R)-3-((S)-3-(4-fluorophenyl)-3-hydroxypropyl)-1-(4-(3-(methylsulfonamido)prop-1-ynyl)phenyl)-4-oxoazetidin-2-yl)phenoxy)-3,4,5-trihydroxytetrahydro-2H-pyran-2-carboxylic acid from human NCP1L1 expressed in HEK 293
readout.name: IC50 (µM)
The reply should contain only the number, in µM.

Some compounds with recorded IC50:
>>> print(df.to_string())
                                   compound  readout_name  observed_value
0  CC(C)(C)OC(=O)NCCNC(=O)CN1CN(c2ccccc2)C2(CCN(C(=O)c3ccc(C(C)(C)C)cc3)CC2)C1=O          IC50             9.4
1  CCC1CCCN(C(=O)CN2CN(c3ccccc3)C3(CCN(C(=O)c4ccc(C5CCCCC5)cc4)CC3)C2=O)C1 (centres undefined)          IC50             2.6
2  O=C(CN1CN(c2ccccc2)C2(CCN(C(=O)c3ccc(C4CCCCC4)cc3)CC2)C1=O)N1CCN(C(=O)c2ccccc2)CC1          IC50             4.8

Could you now consider this next compound?
# lookup: IC50 of NC(=O)C1CCCN(C(=O)CN2CN(c3ccccc3)C3(CCN(C(=O)c4ccc(C5CCCCC5)cc4)CC3)C2=O)C1 (centres undefined)
3.1
